The reported measurements were obtained from patent US11000515B2.

- experimental_target: KRas wild type (Homo sapiens (Human), UniProt P01116)
- Sequence (P01116-2 other isoform, or with tags, fused parts or gaps): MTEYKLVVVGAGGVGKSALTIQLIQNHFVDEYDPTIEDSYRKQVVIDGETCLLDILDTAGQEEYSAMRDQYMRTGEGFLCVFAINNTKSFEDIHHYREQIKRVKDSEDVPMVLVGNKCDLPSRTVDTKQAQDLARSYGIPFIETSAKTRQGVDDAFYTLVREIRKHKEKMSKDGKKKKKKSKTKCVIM
- assay_procedure: Ras GTP binding domain inhibition assay (labeled GTP)
- settings: compound at 20 μM

smiles_input: O=C(CCC1N=NN=N1)Nc1nc(-c2ccccn2)nc2sccc12
inhibition at 20 µM: 51 to 75%

smiles_input: O=C(CCCc1cccnc1)N1CCCc2c(O)nc(-c3ccccn3)nc21
inhibition at 20 µM: 25 to 50%

smiles_input: Cc1cc2nc(-c3ccccn3)nc(O)c2s1
inhibition at 20 µM: 25 to 50%

smiles_input: CN(C)COc1ccc(-c2csc3c(O)nc(-c4ccccn4)nc23)cn1
inhibition at 20 µM: 51 to 75%

smiles_input: O=C(c1csc2c(O)nc(-c3ccccn3)nc12)N1CCN(c2cccnc2)CC1
inhibition at 20 µM: 76 to 100%

smiles_input: Oc1nc(-c2ccccn2)nc2ccsc12
inhibition at 20 µM: 1 to 25%

###

- experimental_target: KRas G12C mutant (Homo sapiens (Human), UniProt P01116, G12C)
- Sequence (P01116-2 other isoform, or with tags, fused parts or gaps G12C): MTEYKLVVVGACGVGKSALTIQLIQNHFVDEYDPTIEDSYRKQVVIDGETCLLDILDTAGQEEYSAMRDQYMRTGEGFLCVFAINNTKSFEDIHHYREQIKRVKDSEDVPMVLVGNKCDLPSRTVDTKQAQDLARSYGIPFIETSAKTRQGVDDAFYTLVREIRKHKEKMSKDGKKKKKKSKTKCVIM
- assay_procedure: Ras GTP binding domain inhibition assay (labeled GTP)
- settings: 20 μM compound
inhibition at 20 µM values, listed per item
measured_metric: inhibition at 20 µM

compound: OC[C@H]1O[C@@H](c2csc3c2N=C(c2ccccn2)NC3O)[C@H](O)[C@@H]1O (stereo partly shown)
result: 51 to 75%

compound: COCCNc1nc(-c2nccn2C)nc2sc(-c3ccccc3)c(-c3cccnc3)c12
result: 25 to 50%

compound: Cc1sc2c(O)nc(-c3nccn3C)nc2c1-c1ccccc1Cl
result: 1 to 25%

compound: CCC(C)c1csc2c(O)nc(-c3ccccn3)nc12 (stereo not shown) [drawing 3492]
result: 25 to 50%

###

- experimental_target: KRas G12D/Q61H double mutant (Homo sapiens (Human), UniProt P01116, G12D/Q61H)
- Sequence (P01116-2 other isoform, or with tags, fused parts or gaps G12D/Q61H): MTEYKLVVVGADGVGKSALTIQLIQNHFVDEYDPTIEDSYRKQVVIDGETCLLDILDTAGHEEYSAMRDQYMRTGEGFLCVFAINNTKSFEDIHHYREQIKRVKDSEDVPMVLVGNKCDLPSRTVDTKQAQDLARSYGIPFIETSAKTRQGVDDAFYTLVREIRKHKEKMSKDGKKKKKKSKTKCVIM
- assay_procedure: Ras GTP binding domain inhibition assay (labeled GTP)
- settings: 20 μM compound; read-out: % Inhibition at 20 μM, KRas G12D Q61H

molecule: COCc1ccc(C2CCCN2c2ccc(C#N)c(C(F)(F)F)c2)o1 (stereo not shown)
inhibition at 20 µM: 25 to 50%

molecule: O=C(NCC(F)(F)F)c1ccc(CN(Cc2cc(Cl)cc3c2OCOC3)C2CC2)cc1
inhibition at 20 µM: 25 to 50%

molecule: Cc1ccccc1N(CC(=O)NCC1CCCCCCC1)S(C)(=O)=O
inhibition at 20 µM: 1 to 25%

molecule: COc1nc(-c2ccccn2)nc2c(C)c(C(=O)N3CCN(c4ccccc4)CC3)sc12
inhibition at 20 µM: 51 to 75%

molecule: CC(NC(=O)c1csc(-c2ccccc2)n1)c1ccccn1 (stereo not shown)
inhibition at 20 µM: 1 to 25%

molecule: COc1cccc(-c2nc(C(=O)N3CCC(c4ccccc4)CC3)cs2)c1OC
inhibition at 20 µM: 25 to 50%

molecule: CCC(C)c1csc2c(O)nc(-c3ccccn3)nc12 (stereo not shown) [drawing 3492]
inhibition at 20 µM: 51 to 75%
